# System: coxsackievirus B3 (CVB3-GFP)
# Format: cell-based
# cond: HeLa cells, GFP-positive cells within RFP-positive gate, replicate R1
Catalogue of molecules with associated Percent Infected R1
measured parameter: Percent Infected R1

MARCH3: human RING type E3 ligase expressed from lentiviral vector (protein, UniProt Q86UD3 1-253, looked up, lentiviral expression, human RING type E3 ligase expressed from lentiviral vector) E3 ubiquitin-protein ligase …: MTTSRCSHLPEVLPDCTSSAAPVVKTVEDCGSLVNGQPQYVMQVSAKDGQLLSTVVRTLATQSPFNDRPMCRICHEGSSQEDLLSPCECTGTLGTIHRSCLEHWLSSSNTSYCELCHFRFAVERKPRPLVEWLRNPGPQHEKRTLFGDMVCFLFITPLATISGWLCLRGAVDHLHFSSRLEAVGLIALTVALFTIYLFWTLVSFRYHCRLYNEWRRTNQRVILLIPKSVNVPSNQPSLLGLHSVKRNSKETVV; 91.4%
TRIM74: human RING type E3 ligase expressed from lentiviral vector (protein, UniProt Q86UV6 1-250, looked up, lentiviral expression, human RING type E3 ligase expressed from lentiviral vector) Tripartite motif-containing …: MAWQVSLLELEDWLQCPICLEVFKESLMLQCGHSYCKGCLVSLSYHLDTKVRCPMCWQVVDGSSSLPNVSLAWVIEALRLPGDPEPKVCVHHRNPLSLFCEKDQELICGLCGLLGSHQHHPVTPVSTVCSRMKEELAALFSELKQEQKKVDELIAKLVKNRTRIVNESDVFSWVIRREFQELRHPVDEEKARCLEGIGGHTRGLVASLDMQLEQAQGTRERLAQAECVLEQFGNEDHHEFIWKFHSMASR; 71.6%
